# target: KRAS-G12D protein (Homo sapiens, UniProt P01116, G12D)
# Construct: host or cells: Aspc-1 cells
# Sequence (P01116 1-188 isoform P01116-2 G12D): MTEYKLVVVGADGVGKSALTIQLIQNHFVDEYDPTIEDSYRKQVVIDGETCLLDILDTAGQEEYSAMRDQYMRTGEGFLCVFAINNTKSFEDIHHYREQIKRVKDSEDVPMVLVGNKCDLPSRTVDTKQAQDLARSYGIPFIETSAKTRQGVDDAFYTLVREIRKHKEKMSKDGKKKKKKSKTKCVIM
# experiment description: KRAS-G12D protein degradation study in Aspc-1 cells (western blot)
# Type: cell-based
# conditions used: Aspc-1 cells; read-out: DC50 of test compound-induced KRAS^G12D protein degradation
readout label: DC50

{"columns": ["compound", "target", "measurement"],
 "data": [
  ["C#Cc1c(F)ccc2cc(O)cc(-c3ncc4c(N5CC6CCC(C5)N6)nc(OC5CCN(CC(=O)N6CCC7(CC6)CC(N6CCC(c8ccc(NC9CCC(=O)NC9=O)cc8F)CC6)C7)CC5)nc4c3F)c12 (stereo not drawn)", "KRAS-G12D protein (Homo sapiens, UniProt P01116, G12D)", "< 10 nM"],
  ["C#Cc1c(F)ccc2cc(O)cc(-c3ncc4c(N5CC6CCC(C5)N6)nc(OCC5(CN6CCC(C(=O)N7CCC(N8CCC(c9ccc%10c(C%11CCC(=O)NC%11=O)nn(C)c%10c9)CC8)CC7)CC6)CC5)nc4c3F)c12 (stereo not drawn)", "KRAS-G12D protein (Homo sapiens, UniProt P01116, G12D)", "< 10 nM"],
  ["C#Cc1c(F)ccc2cc(O)cc(-c3ncc4c(N5CC6CCC(C5)N6)nc(OCC5(CN6CCC7(CC6)CC(N6CCC(c8ccc9c(c8)n(C)c(=O)n9C8CCC(=O)NC8=O)CC6)C7)CC5)nc4c3F)c12 (stereo not drawn)", "KRAS-G12D protein (Homo sapiens, UniProt P01116, G12D)", "< 10 nM"],
  ["C#Cc1c(F)ccc2cc(O)cc(-c3ncc4c(N5CC6CCC(C5)N6)nc(OCC5(CN6CCC(CN7CCN(c8cccc9c8C(=O)N(C8CCC(=O)NC8=O)C9=O)CC7)CC6)CC5)nc4c3F)c12 (stereo not drawn)", "KRAS-G12D protein (Homo sapiens, UniProt P01116, G12D)", "< 10 nM"],
  ["C#Cc1c(F)ccc2cc(O)cc(-c3ncc4c(N5CC6CCC(C5)N6)nc(OCC5(CN6CCCN(C(=O)CN7CCC(c8ccc9c(C%10CCC(=O)NC%10=O)nn(C)c9c8)CC7)CC6)CC5)nc4c3F)c12 (stereo not drawn)", "KRAS-G12D protein (Homo sapiens, UniProt P01116, G12D)", "11 to 50 nM"],
  ["C#Cc1c(F)ccc2cc(O)cc(-c3ncc4c(N5CC6CCC(C5)N6)nc(OC5CCN(CC(=O)N6CCC7(CC6)CC(N6CCC(c8ccc9c(C%10CCC(=O)NC%10=O)nn(C)c9c8)CC6)C7)CC5)nc4c3F)c12 (stereo not drawn)", "KRAS-G12D protein (Homo sapiens, UniProt P01116, G12D)", "< 10 nM"],
  ["C#Cc1c(F)ccc2cc(O)cc(-c3ncc4c(N5CC6CCC(C5)N6)nc(OCC5(CN6CCN(C7CC(C(=O)N8CCC(c9ccc%10c(C%11CCC(=O)NC%11=O)nn(C)c%10c9)CC8)C7)CC6)CC5)nc4c3F)c12 (stereo not drawn)", "KRAS-G12D protein (Homo sapiens, UniProt P01116, G12D)", "< 10 nM"],
  ["C#Cc1c(F)ccc2cc(O)cc(-c3ncc4c(N5CC6CCC(C5)N6)nc(OCC5(CN6CCC7(CC6)CC(N6CCN(c8ccc(NC9CCC(=O)NC9=O)cc8F)CC6)C7)CC5)nc4c3F)c12 (stereo not drawn)", "KRAS-G12D protein (Homo sapiens, UniProt P01116, G12D)", "< 10 nM"],
  ["C#Cc1c(F)ccc2cc(O)cc(-c3ncc4c(N5CC6CCC(C5)N6)nc(OCC5(CN6CCC7(CC6)CC(N6CCC(c8cccc9c8CN(C8CCC(=O)NC8=O)C9=O)CC6)C7)CC5)nc4c3F)c12 (stereo not drawn)", "KRAS-G12D protein (Homo sapiens, UniProt P01116, G12D)", "> 200 nM"]
]}
